test: antimalarial activity against Dd2 strain (AID 2302);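 also: 0% = DMSO untreated growth and 100% = chloroquine plus artemisinin killed control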; conditions: P. falciparum Dd2 in RBCs, LDH growth readout, 72 h; at 2 µM; stronger effect = higher value
If the reported growth inhibition equals or exceeds 30%, assign yes (1). If not, assign no (0).

> print(dat)
                                   compound    label
1  Cc1ccc(CNC(=O)[C@H](Cc2ccccc2)Nc2cc(C)nc(NCCc3ccc(F)cc3)n2)cc1   no (0)
2  CC(C)N1CCC(N(Cc2ccc(-c3ccc(C(F)(F)F)cc3)cc2)C(=O)Cn2c(SCc3cccc(F)c3F)cc(=O)c3c2CCC3)CC1  yes (1)
3  Cc1noc(-c2ccccc2)c1CN1CCCC2(CC(C(=O)NCc3cccc(F)c3F)=NO2)C1 (centres undefined)   no (0)
4  COc1ccccc1C1CC(c2ccccc2)=NN1C(=O)c1ccccc1 (centres undefined)  yes (1)
5          COc1ccc(C=Cc2cc(N)c3ccccc3n2)cc1   no (0)
6  COc1ccc(-c2nc3cccnc3n2CC(=O)Nc2c(C)cc(C)cc2C)c(OC)c1   no (0)
7  Cc1cccc2[nH]c(-c3ccc(-c4cccc(NC(=O)C(C)CN5CCN(C)CC5)c4)s3)nc12 (centres undefined)  yes (1)
8  COc1ccc(S(=O)(=O)NC2CCN(CCNC(=O)Nc3cc(C)nc4ccccc34)C2)cc1 (centres undefined)  yes (1)
9  O=C(NCC1CC1)C1CCN(C(c2ccccc2)c2cc(F)cc(F)c2)CC1 (centres undefined)  yes (1)

The measured values listed here are drawn from PubChem BioAssay.
